Field: IC50. System: TBK1 (Homo sapiens). Provenance: assorted publications.
Sequence (Q9UHD2 whole entry): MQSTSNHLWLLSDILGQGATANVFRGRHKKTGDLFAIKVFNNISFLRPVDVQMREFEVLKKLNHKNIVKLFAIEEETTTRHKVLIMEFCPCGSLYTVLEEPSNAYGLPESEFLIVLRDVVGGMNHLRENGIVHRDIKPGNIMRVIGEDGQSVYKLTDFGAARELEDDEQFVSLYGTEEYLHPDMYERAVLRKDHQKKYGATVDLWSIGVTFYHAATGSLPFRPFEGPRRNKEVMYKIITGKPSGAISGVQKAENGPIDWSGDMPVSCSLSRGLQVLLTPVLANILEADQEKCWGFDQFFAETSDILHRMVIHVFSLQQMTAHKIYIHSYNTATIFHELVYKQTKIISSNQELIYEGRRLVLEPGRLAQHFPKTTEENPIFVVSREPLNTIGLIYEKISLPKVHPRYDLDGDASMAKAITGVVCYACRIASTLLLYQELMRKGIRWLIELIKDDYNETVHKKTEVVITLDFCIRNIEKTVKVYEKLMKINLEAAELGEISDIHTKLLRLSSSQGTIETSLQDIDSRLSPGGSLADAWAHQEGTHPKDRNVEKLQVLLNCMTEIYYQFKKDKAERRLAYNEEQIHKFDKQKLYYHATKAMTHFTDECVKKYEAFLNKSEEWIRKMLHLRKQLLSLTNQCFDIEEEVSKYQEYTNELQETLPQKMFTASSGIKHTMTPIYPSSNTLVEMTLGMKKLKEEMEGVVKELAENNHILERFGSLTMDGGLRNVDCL

Some molecules with recorded IC50:
NC(=O)c1nc(-c2ccncc2)sc1NC(=O)c1ccsc1 :: 200 nM
N#Cc1cc(-c2ccnc3cc(-c4ccc(C(=O)N5CCNC(=O)CC5)cc4F)oc23)ccc1OC1CCOCC1 :: < 300 nM
O=C(NCCCn1ccc2cnc(Nc3cccc(-n4cncn4)c3)nc21)C1CCC1 :: < 100 nM
COc1nc(Nc2cc(-c3ccc(OC4CCOCC4)c(C#N)c3)ncn2)ccc1N1C[C@@H](C)N(C2COC2)[C@@H](C)C1 :: < 100 nM
CN1CCN(C(=O)c2ccc(-c3cc4nccc(-c5ccc(N6CCCC6)c(C#N)c5)c4o3)cc2)CC1 :: < 300 nM
O=C(NCCCn1ccc2cnc(Nc3ccc(N4CCOCC4)nc3)nc21)C1CC1 :: 100 to 1000 nM

What value of measured IC50 is listed for `CN(C)C(=O)c1ccc(Nc2cc(-c3ccc(OC4CCOCC4)c(C#N)c3)ncn2)nc1` ? < 100 nM

I'd like to know its IC50. The molecule in question is `O=C(NCCCn1ccc2cnc(Nc3cccc(N4CCCC4=O)c3)nc21)C1CCC1` 100 to 1000 nM

What value of measured IC50 is listed for COc1nc(Nc2cc(-c3ccc(OC4CCN(C)CC4(F)F)c(C#N)c3)ncn2)ccc1N1CCN(C)CC1 (stereo not shown) ? < 100 nM

Look up IC50 for this molecule: `O=C(NCCCn1ccc2cnc(Nc3ccc(N4CCOCC4)nc3)nc21)C1CCCC1` < 100 nM
